Each recorded value in this set is attributed to patent US6288265A.

test system: β-lactamase of PS. aeruginosa 18S-H; experiment: Minimum protective concentration against β-lactamase of Ps. aeruginosa 18S-H; format: biochemical; details: protection of chromogenic cephem indicator from hydrolysis within 40 min, average of duplicates
Field: Minimum Protective Concentration (MPC), β-lactamase of PS. aeruginosa 18S-H. Provide a value for each of the molecules that follow.
State the value, then name its unit.

Looking up CC(=O)OCC1=C(C(=O)O)N2C(=O)[C@@H](NC(=O)c3cccc(C(=O)c4cc(Cl)cc(C(=O)c5ccccc5O)c4O)c3O)[C@H]2SC1 , I see its Minimum Protective Concentration (MPC), β-lactamase of PS. aeruginosa 18S-H listed as 93.45 µg/mL

Looking up CO/N=C(\C(=O)N[C@@H]1C(=O)N2C(C(=O)O)=C(COC(C)=O)CS[C@H]12)c1csc(N)n1 [XVI, reference compound] , I see its Minimum Protective Concentration (MPC), β-lactamase of PS. aeruginosa 18S-H listed as 1.03 µg/mL

Looking up CC(=O)OCC1=C(C(=O)O)N2C(=O)[C@@H](NC(=O)c3cccc(Cc4cc(Cl)cc(Cc5ccccc5O)c4O)c3O)[C@H]2SC1 , I see its Minimum Protective Concentration (MPC), β-lactamase of PS. aeruginosa 18S-H listed as 99.78 µg/mL

###

Test system: PS. aerureus 18S-H
Assay: Minimum inhibitory concentration, agar dilution, Ps. 18S-H
Assay type: cell-based, Pseudomonas aeruginosa 18S-H
Settings: Pseudomonas aeruginosa, 18SH, read-out: Minimum Inhibitory Concentration (MIC), PS. aerureus 18S-H
Protocol: Determination of Minimum Inhibitory Concentrations. The screening experiments in vitro were carried out for antibacterial activities of the phloroglucide analogs II-VII, XII-XIV, bifunctional cephalosporins VIII and IX, as well as 7-(phloroglucidamido)cephalosporins X and XI. Cephalosporins XV and XVI were used as the reference compounds. The lowest concentrations of antibiotics needed for prevention of visible growth of microorganisms; reported as the average values of duplicate determinations. […]
value_type: MIC (µg/mL)
Numeric only. Scale: µg/mL

Looking up O=C(O)c1cccc(Cc2cc(Cl)cc(Cc3ccccc3O)c2O)c1O [II] , I see its MIC listed as 0.1

Looking up O=C(O)c1cccc(C(=O)c2cc(Cl)cc(C(=O)c3ccccc3O)c2O)c1O [III] , I see its MIC listed as 0.26

Looking up COC(=O)c1cccc(C(=O)c2cc(Cl)cc(C(=O)c3ccccc3O)c2O)c1O [V] , I see its MIC listed as 4.3

Looking up COC(=O)c1cccc(Cc2cc(Cl)cc(Cc3ccccc3O)c2O)c1O [IV] , I see its MIC listed as 1.56

Looking up O=C(O)c1cccc(C(=O)c2cc(Cl)cc(C(=O)c3cccc(C(=O)O)c3O)c2O)c1O [XIV, reference compound] , I see its MIC listed as 3.06

###

system: PS. aerureus 18S-H; assay: Minimum inhibitory concentration, agar dilution, Ps. 18S-H; type: cell-based, Pseudomonas aeruginosa 18S-H; conditions: Pseudomonas aeruginosa, 18SH, read-out: Minimum Inhibitory Concentration (MIC), PS. aerureus 18S-H
value_type: log10(MIC) (log10 of the value in µg/mL)
In our notation, the value equals log10 of MIC in µg/mL.

Looking up O=C(O)c1cccc(Cc2cc(Cl)cc(Cc3cccc(C(=O)O)c3O)c2O)c1O [XIII, reference compound] , I see its log10(MIC) listed as 0.12

Looking up O=C(COc1ccccc1)N[C@@H]1C(=O)N2C(C(=O)O)=C(COC(=O)c3cccc(Cc4cc(Cl)cc(Cc5ccccc5O)c4O)c3O)CS[C@H]12 , I see its log10(MIC) listed as 0.09

Looking up Oc1ccccc1Cc1cc(Cl)cc(Cc2ccccc2O)c1O [XII, reference compound] , I see its log10(MIC) listed as -0.74

Looking up CC(=O)OCC1=C(C(=O)O)N2C(=O)[C@@H](NC(=O)c3cccc(C(=O)c4cc(Cl)cc(C(=O)c5ccccc5O)c4O)c3O)[C@H]2SC1 , I see its log10(MIC) listed as -0.42

Looking up CC(=O)OCC1=C(C(=O)O)N2C(=O)[C@@H](NC(=O)c3cccc(Cc4cc(Cl)cc(Cc5ccccc5O)c4O)c3O)[C@H]2SC1 , I see its log10(MIC) listed as -0.35

Looking up O=C(COc1ccccc1)N[C@@H]1C(=O)N2C(C(=O)O)=C(COC(=O)c3cccc(C(=O)c4cc(Cl)cc(C(=O)c5ccccc5O)c4O)c3O)CS[C@H]12 , I see its log10(MIC) listed as 0.50

Looking up CNC(=O)c1cccc(C(=O)c2cc(Cl)cc(C(=O)c3ccccc3O)c2O)c1O , I see its log10(MIC) listed as 0.92

Looking up CO/N=C(\C(=O)N[C@@H]1C(=O)N2C(C(=O)O)=C(COC(C)=O)CS[C@H]12)c1csc(N)n1 [XVI, reference compound] , I see its log10(MIC) listed as 2.13

Looking up CNC(=O)c1cccc(Cc2cc(Cl)cc(Cc3ccccc3O)c2O)c1O , I see its log10(MIC) listed as 0.67
